Sourced from ChEMBL document CHEMBL1212811

Let's go through some recorded Ki values for Histone deacetylase 3 (Homo sapiens) together.
Please format your answer as a value with the unit trailing.

Query :: Would you mind telling me what Ki value was observed for O=C(CCCCCCC(=O)NO)NO [SUBEROHYDROXAMIC ACID] ?
Result :: 0.125 µM

Query :: Would you kindly repeat that for O=C(CCCCCCC(=O)Nc1cccnc1)NO [PYROXAMIDE] ?
Result :: 0.008 µM

Query :: Entry to check: Cn1c(/C=C/C(=O)NO)ccc1C(=O)Cc1ccccc1
Result :: 0.25 µM

Query :: Proceed to O=C(/C=C/c1ccc(C(=O)N/N=C/c2ccc(O)c(O)c2O)cc1)NO
Result :: 0.12 µM
